- Tested on: Enterococcus faecalis (EFA)
- EXPERIMENT_DESCRIPTION: MIC, two-fold agar dilution (CLSI), clinical isolates
- Type: cell-based
- CONDITION_CONTEXT: strain EFA 15-3

[
  {
    "COMPOUND": "O=C(C[C@@H](CC1CCCC1)C(=O)N1CC2(CC2)C[C@H]1C(=O)NC1CC1)NO",
    "VALUE_UNITS": "mg/L",
    "VALUE_MODIFIER": ">",
    "Anti-bacterial activity (MIC)": 32
  },
  {
    "COMPOUND": "O=C(C[C@@H](CC1CCCC1)C(=O)N1CC2(CC2)C[C@H]1c1nc2ccccc2[nH]1)NO",
    "VALUE_UNITS": "mg/L",
    "VALUE_MODIFIER": ">",
    "Anti-bacterial activity (MIC)": 32
  },
  {
    "COMPOUND": "CCCC[C@H](CC(=O)NO)C(=O)N1CC2(CCCC2)C[C@H]1C(=O)Nc1ccc(F)cn1",
    "VALUE_UNITS": "mg/L",
    "VALUE_MODIFIER": ">",
    "Anti-bacterial activity (MIC)": 32
  },
  {
    "COMPOUND": "O=C(C[C@@H](CC1CCCC1)C(=O)N1CC2(CC2)C[C@H]1C(=O)Nc1ncccc1F)NO",
    "VALUE_UNITS": "mg/L",
    "VALUE_MODIFIER": "=",
    "Anti-bacterial activity (MIC)": 32
  },
  {
    "COMPOUND": "O=C(C[C@@H](CC1CCCC1)C(=O)N1CC2(CC2)C[C@H]1C(=O)Nc1ccno1)NO",
    "VALUE_UNITS": "mg/L",
    "VALUE_MODIFIER": "=",
    "Anti-bacterial activity (MIC)": 32
  },
  {
    "COMPOUND": "O=C(C[C@@H](CC1CCCC1)C(=O)N1CC2(CC2)C[C@H]1C(=O)Nc1nc(C(F)(F)F)cs1)NO",
    "VALUE_UNITS": "mg/L",
    "VALUE_MODIFIER": "=",
    "Anti-bacterial activity (MIC)": 2
  },
  {
    "COMPOUND": "O=C(C[C@@H](CC1CCCC1)C(=O)N1CC2(CC2)C[C@@H]1c1nc2ccccc2[nH]1)NO",
    "VALUE_UNITS": "mg/L",
    "VALUE_MODIFIER": ">",
    "Anti-bacterial activity (MIC)": 32
  },
  {
    "COMPOUND": "CCCC[C@H](CC(=O)NO)C(=O)N1CC2(CCCC2)C[C@H]1C(=O)Nc1cnccn1",
    "VALUE_UNITS": "mg/L",
    "VALUE_MODIFIER": "=",
    "Anti-bacterial activity (MIC)": 32
  },
  {
    "COMPOUND": "CCCC[C@H](CN(O)C=O)C(=O)N1CCC[C@H]1C(=O)Nc1ccc(F)c[n+]1[O-] [LBM415, reference compound]",
    "VALUE_UNITS": "mg/L",
    "VALUE_MODIFIER": "=",
    "Anti-bacterial activity (MIC)": 2
  },
  {
    "COMPOUND": "O=C(C[C@@H](CC1CCCC1)C(=O)N1CC2(CC2)C[C@H]1C(=O)Nc1ncco1)NO",
    "VALUE_UNITS": "mg/L",
    "VALUE_MODIFIER": ">",
    "Anti-bacterial activity (MIC)": 32
  }
]
